Target: D(1A) dopamine receptor (Homo sapiens, UniProt P21728); note: assay procedure not described here
Sequence (P21728 whole entry): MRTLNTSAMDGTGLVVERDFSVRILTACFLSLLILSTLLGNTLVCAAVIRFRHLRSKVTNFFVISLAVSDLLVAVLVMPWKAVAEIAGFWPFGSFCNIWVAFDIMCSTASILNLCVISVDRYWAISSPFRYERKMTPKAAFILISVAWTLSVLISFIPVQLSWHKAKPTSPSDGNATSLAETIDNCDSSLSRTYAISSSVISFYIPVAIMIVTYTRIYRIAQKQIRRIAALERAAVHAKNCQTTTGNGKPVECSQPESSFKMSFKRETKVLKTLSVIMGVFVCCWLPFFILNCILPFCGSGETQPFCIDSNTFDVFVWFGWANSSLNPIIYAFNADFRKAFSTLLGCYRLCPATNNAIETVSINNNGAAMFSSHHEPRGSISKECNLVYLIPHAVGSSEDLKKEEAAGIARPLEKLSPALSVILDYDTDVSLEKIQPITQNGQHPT
Assay type: functional, cell-based
Where a SMILES comes first, the peptide text is derived from it.
property: AC50

[
  {
    "molecule": "CNCCc1ccccn1",
    "target-or-system": "D(1A) dopamine receptor (Homo sapiens, UniProt P21728)",
    "AC50": "> 30 µM"
  },
  {
    "molecule": "CCOc1ccccc1OCCN[C@H](C)Cc1ccc(OC)c(S(N)(=O)=O)c1",
    "target-or-system": "D(1A) dopamine receptor (Homo sapiens, UniProt P21728)",
    "AC50": "> 10 µM"
  },
  {
    "molecule": "Cc1cccc(Nc2ccncc2S(=O)(=O)NC(=O)NC(C)C)c1 [TORSEMIDE]",
    "target-or-system": "D(1A) dopamine receptor (Homo sapiens, UniProt P21728)",
    "AC50": "> 10 µM"
  }
]

State recorded AC50 for all listed molecules.
1. NCCCCCC(=O)O
2. C[C@H](N)C(=O)N[C@@H](CCC(N)=O)C(=O)O [ALANYL GLUTAMINE] (H-Ala-Gln-OH)
3. CCCCOC(=O)C(=O)Nc1cccc(-c2nnn[nH]2)c1
4. CCC[C@@]1(CCc2ccccc2)CC(O)=C([C@H](CC)c2cccc(NS(=O)(=O)c3ccc(C(F)(F)F)cn3)c2)C(=O)O1
5. O=C(c1ccccc1)c1ccc2n1CCC2C(=O)O (centres undefined)
6. CCN(CCO)CCCC(C)Nc1ccnc2cc(Cl)ccc12 (centres undefined) [HYDROXYCHLOROQUINE]

1: > 10 µM; 2: > 30 µM; 3: > 30 µM; 4: > 30 µM; 5: > 30 µM; 6: > 10 µM
